Measured ELISA, listed per entry.
studySystem: T1, PCSK9Δhelix (human, Chemically biotinylated in the phage ELISAs; the site is not given.)
T1 construct: construct M1-Q692 with engineered TEV site, cleaved by TEV; also called His-PCSK9Δhelix; open groove PCSK9Δhelix
T1 sequence (prodomain, as listed by the source mutant limits assumed, chain 1 of 2): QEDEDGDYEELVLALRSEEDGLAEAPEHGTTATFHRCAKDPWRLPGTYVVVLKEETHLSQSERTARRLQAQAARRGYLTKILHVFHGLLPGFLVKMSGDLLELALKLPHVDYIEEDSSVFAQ
T1 sequence (chain, as listed by the source mutant limits assumed, chain 2 of 2): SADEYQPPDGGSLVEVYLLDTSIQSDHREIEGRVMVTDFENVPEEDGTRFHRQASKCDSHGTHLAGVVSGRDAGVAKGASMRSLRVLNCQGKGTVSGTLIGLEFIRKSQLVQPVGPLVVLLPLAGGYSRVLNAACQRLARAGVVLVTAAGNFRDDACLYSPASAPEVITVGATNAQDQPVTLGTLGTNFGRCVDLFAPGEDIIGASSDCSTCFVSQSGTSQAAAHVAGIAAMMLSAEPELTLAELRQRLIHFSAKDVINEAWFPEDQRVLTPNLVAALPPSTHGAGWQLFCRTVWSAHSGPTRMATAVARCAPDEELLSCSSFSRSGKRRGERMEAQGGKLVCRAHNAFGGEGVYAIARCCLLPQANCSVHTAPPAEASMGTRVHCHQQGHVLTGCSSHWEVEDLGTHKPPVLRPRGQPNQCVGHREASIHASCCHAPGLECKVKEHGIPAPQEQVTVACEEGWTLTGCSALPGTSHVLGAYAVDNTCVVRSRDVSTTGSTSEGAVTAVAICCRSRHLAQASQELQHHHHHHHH
measurementNotes: phage spot ELISA;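 note: phage clones bound to PCSK9 or PCSK9Δhelix by ELISA, noise being the same phage on NeutrAvidin, positive when signal above 0.4 and signal:noise above 2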

Ask | Value lookup for ELISA; key = TAFTSWEEYLDWVGSGGPWNLNRV [SEQ ID NO 309]
Reply | 2.7

Ask | Value lookup for ELISA; key = TAFTSWEEYLDWVGSGGEYLWNLKRLES [SEQ ID NO 320]
Reply | 2.94

Ask | Value lookup for ELISA; key = TAFTSWEEYLDWVGSGVVLWNHSRIL [SEQ ID NO 313]
Reply | 2.96

Ask | Value lookup for ELISA; key = TAFTSWEEYLDWVGSGRGGYELNIPR [SEQ ID NO 326]
Reply | 2.69

Ask | Value lookup for ELISA; key = TAFTSWEEYLDWVGSGVPWNLAKI [SEQ ID NO 315]
Reply | 2.67

New cases:
Ask | Value lookup for ELISA; key = TAFTSWEEYLDWV [phage-displayed Pep2-8V2A]
Reply | 0.07

Ask | Value lookup for ELISA; key = TAFTSWEEYLDWVGSGMPWNLARIER [SEQ ID NO 318]
Reply | 3
